Recorded inhibition at 7 g/ha for the following compounds
System: soybean (Glycine max Merr.)
assayOverview: Test Example 1, foliar treatment in upland pots
Format: in vivo
testParameters: 20th to 22nd day after application, visual, read-out: Growth inhibition rate (%) Soybean
From the text: Upland field soil was put into a 1/170,000 hectare pot, and seeds of various plants were sown. […]
measuredParameter: inhibition at 7 g/ha (%)

INSERT INTO assay_data (compound, assaysystem, unitinfo, recordedvalue) VALUES
  ('COCCOc1c(S(C)(=O)=O)ccc(C(=O)c2cnn(C(C)C)c2OC(C)OC(=O)OC)c1C (centres unmarked)', 'soybean (Glycine max Merr.)', '%', 95),
  ('COC(=O)OC(C)Oc1c(C(=O)c2ccc(S(C)(=O)=O)c(C(=O)OC)c2C)cnn1C (centres unmarked)', 'soybean (Glycine max Merr.)', '%', 95),
  ('COCCOc1c(S(C)(=O)=O)ccc(C(=O)c2c(C)nn(C(C)C)c2O)c1C', 'soybean (Glycine max Merr.)', '%', 10),
  ('COCc1c(S(C)(=O)=O)ccc(C(=O)c2cnn(C)c2OC(C)OC(=O)OC)c1C (centres unmarked)', 'soybean (Glycine max Merr.)', '%', 70),
  ('CCOCc1c(S(C)(=O)=O)ccc(C(=O)c2cnn(C)c2OC(C)OC(=O)OCC)c1C (centres unmarked)', 'soybean (Glycine max Merr.)', '%', 80),
  ('CCOCc1c(S(C)(=O)=O)ccc(C(=O)c2cnn(C)c2OC(C)OC(=O)OC)c1C (centres unmarked)', 'soybean (Glycine max Merr.)', '%', 70),
  ('CCCn1ncc(C(=O)c2ccc(S(C)(=O)=O)c(OCCOC)c2C)c1O', 'soybean (Glycine max Merr.)', '%', 60),
  ('COCCOc1c(S(C)(=O)=O)ccc(C(=O)c2c(C)nn(C)c2O)c1C', 'soybean (Glycine max Merr.)', '%', 70);

---

Test system: barnyardgrass (Echinochloa crus-galli L.)
assayOverview: Test Example 2, soil application on the day after sowing
Format: in vivo
testParameters: 21st to 22nd day after application, visual, read-out: Growth inhibition rate (%) Barnyardgrass
measuredParameter: inhibition at 250 g/ha

INSERT INTO results (molecule, recordedvalue) VALUES
  ('COCCOc1c(S(C)(=O)=O)ccc(C(=O)c2c(C)nn(C(C)C)c2O)c1C', '100%'),
  ('COC(=O)OC(C)Oc1c(C(=O)c2ccc(S(C)(=O)=O)c(C(=O)OC)c2C)cnn1C (centres unmarked)', '100%'),
  ('CCOCc1c(S(C)(=O)=O)ccc(C(=O)c2cnn(C)c2OC(C)OC(=O)OCC)c1C (centres unmarked)', '98%'),
  ('CCc1nn(C)c(O)c1C(=O)c1ccc(S(C)(=O)=O)c(OCCOC)c1C', '50%'),
  ('COCCOc1c(S(C)(=O)=O)ccc(C(=O)c2cnn(C(C)C)c2OC(C)OC(=O)OC)c1C (centres unmarked)', '100%'),
  ('COCc1c(S(C)(=O)=O)ccc(C(=O)c2cnn(C)c2OC(C)OC(=O)OC)c1C (centres unmarked)', '98%'),
  ('Cc1c(C(=O)c2cnn(C)c2O)ccc(S(C)(=O)=O)c1OCCC(C)C', '98%'),
  ('CCn1ncc(C(=O)c2ccc(S(C)(=O)=O)c(OCCOC)c2C)c1OC(C)OC(=O)OC (centres unmarked)', '95%');
